# ASSAYED_TARGET: β-catenin/E-cadherin PPI (Homo sapiens)
# Sequence (P35222 whole entry): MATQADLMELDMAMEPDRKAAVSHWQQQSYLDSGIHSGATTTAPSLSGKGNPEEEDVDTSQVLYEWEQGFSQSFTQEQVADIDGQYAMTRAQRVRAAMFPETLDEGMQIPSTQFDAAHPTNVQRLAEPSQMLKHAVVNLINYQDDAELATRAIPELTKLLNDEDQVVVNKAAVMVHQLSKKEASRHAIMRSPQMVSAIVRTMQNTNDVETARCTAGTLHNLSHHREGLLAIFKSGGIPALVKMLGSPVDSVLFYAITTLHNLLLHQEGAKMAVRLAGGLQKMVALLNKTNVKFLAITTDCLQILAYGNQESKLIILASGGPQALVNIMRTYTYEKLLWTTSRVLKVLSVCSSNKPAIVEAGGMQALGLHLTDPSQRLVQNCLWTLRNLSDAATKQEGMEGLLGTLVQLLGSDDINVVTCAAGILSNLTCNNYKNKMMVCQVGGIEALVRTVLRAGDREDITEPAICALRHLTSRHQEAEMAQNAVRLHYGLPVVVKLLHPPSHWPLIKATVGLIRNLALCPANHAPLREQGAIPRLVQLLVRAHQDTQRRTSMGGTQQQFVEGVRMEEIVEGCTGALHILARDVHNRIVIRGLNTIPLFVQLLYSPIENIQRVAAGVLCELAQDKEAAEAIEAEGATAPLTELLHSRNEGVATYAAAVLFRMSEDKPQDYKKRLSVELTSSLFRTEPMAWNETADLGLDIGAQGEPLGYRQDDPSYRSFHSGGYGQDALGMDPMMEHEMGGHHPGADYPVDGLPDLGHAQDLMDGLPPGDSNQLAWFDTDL
# PROTOCOL_TEXT: AlphaScreen selectivity assay, β-catenin/E-cadherin PPI
pKi: −log10 of the molar value.
QUANTITY: pKi

> print(dat)
                               query.smiles  recorded.result
1  Cl.Cl.O=C(Nc1ccc(O[C@@H]2CCNC2)c(-c2cccc(-c3nn[nH]n3)c2)c1)c1ccc(O[C@H]2CCNC2)c(-c2ccc3ccsc3c2)c1           < 3.04

For β-catenin/E-cadherin PPI (Homo sapiens), give pKi of the listed compound: `Cl.Cl.O=C(Nc1ccc(O[C@@H]2CCNC2)c(-c2cccc(-c3nn[nH]n3)c2)c1)c1ccc(O[C@H]2CCNC2)c(-c2ccc(F)c(F)c2)c1` < 3.04
